target-of-assay: human NK2-receptor (Homo sapiens, UniProt P21452)
Sequence (P21452 whole entry): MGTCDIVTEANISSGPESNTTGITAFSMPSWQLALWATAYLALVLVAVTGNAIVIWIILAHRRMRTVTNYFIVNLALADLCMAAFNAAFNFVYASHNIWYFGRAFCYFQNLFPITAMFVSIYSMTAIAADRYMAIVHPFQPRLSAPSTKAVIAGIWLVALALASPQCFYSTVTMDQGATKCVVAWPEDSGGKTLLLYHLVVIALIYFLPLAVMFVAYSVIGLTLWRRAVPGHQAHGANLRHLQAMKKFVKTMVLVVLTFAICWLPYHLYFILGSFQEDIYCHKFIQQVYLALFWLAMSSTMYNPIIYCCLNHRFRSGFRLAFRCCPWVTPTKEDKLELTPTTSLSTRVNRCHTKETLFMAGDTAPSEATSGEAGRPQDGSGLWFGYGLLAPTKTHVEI
run-description: Binding potency of the test substances to NK2-receptors in vitro ([3H]-SR 48968 displacement)
Design: expressed in transfected cells; host or cells: CHO cells (membrane preparation)
stated-conditions: human NK2-receptor in CHO cell membranes, [3H]-SR 48968 (saredutant); average of at least three measurements; read-out: pKi, binding potency to NK2-receptors (converted)
quantity-measured: Ki (nM)

>>> print(df.to_string())
                                    compound  quantity_measured  measured_result
 0  CN(C)C(=O)C1(N2CCCCC2)CCN(CCC(CN(C)C(=O)Cc2ccncc2)c2ccc(Cl)c(Cl)c2)CC1 (centres unmarked)                 Ki             79.4
 1  CN(C)C(=O)C1(N(C)C)CCN(CCC(CN(C)C(=O)c2ccccc2)c2ccc(Cl)c(Cl)c2)CC1 (centres unmarked)                 Ki                2
 2  CN(C)C(=O)C1(N2CCN(CC[C@H](CN(C)C(=O)c3ccccc3)c3ccc(Cl)c(Cl)c3)CC2)CCCCC1                 Ki                2
 3  CN(C)C(=O)C1(N2CCCCC2)CCN(CCC(CN(C)C(=O)c2ccc(Cl)nc2)c2ccc(Cl)c(Cl)c2)CC1 (centres unmarked)                 Ki             1.26
 4  CN(CC(CCN1CCC(C(=O)N2CCCC2)(N2CCCCC2)CC1)c1ccc(Cl)c(Cl)c1)C(=O)c1cc(C#N)cc2ccccc12 (centres unmarked)                 Ki               10
 5  CN(C)C(=O)C1(N2CCCCC2)CCN(CCC(CN(C)C(=O)Cc2ccc(-c3ccccc3)cc2)c2ccc(Cl)c(Cl)c2)CC1 (centres unmarked)                 Ki             79.4
 6  CN(C)C(=O)C1CCCCN1C1CCN(CCC(CN(C)C(=O)c2ccccc2)c2ccc(Cl)c(Cl)c2)CC1 (centres unmarked)                 Ki                2
 7  CN(C)C(=O)C1(N2CCCCC2)CCN(CCC(CN(C)C(=O)c2ccc(Cl)cc2Cl)c2ccc(Cl)c(Cl)c2)CC1 (centres unmarked)                 Ki             5.01
 8  CN(C)C(=O)C1(N2CCCCC2)CCN(CCC(CN(C)C(=O)c2ccc3ccccc3c2)c2ccc(Cl)c(Cl)c2)CC1 (centres unmarked)                 Ki             15.8
 9  CN(C)C(=O)C1(N2CCCCC2)CCN(CCC(CN(C)C(=O)c2ccncc2)c2ccc(Cl)c(Cl)c2)CC1 (centres unmarked)                 Ki             5.01
10  CN(C)C(=O)C1(N2CCCCC2)CCN(CCC(CN(C)C(=O)c2cccnc2)c2ccc(Cl)c(Cl)c2)CC1 (centres unmarked)                 Ki             3.16
11  CCCCN(C(=O)CC)C1CCN(CC[C@H](CN(C)C(=O)c2ccccc2)c2ccc(Cl)c(Cl)c2)CC1                 Ki             3.98
12  CN(C)C(=O)C1(N2CCCCC2)CCN(CCC(CN(C)C(=O)c2ccc(Cl)c(S(N)(=O)=O)c2)c2ccc(Cl)c(Cl)c2)CC1 (centres unmarked)                 Ki             3.16
13  CN(C)C(=O)C1(N2CCCCC2)CCN(CCC(CN(C)C(=O)Cc2ccc(C(F)(F)F)c(C(F)(F)F)c2)c2ccc(Cl)c(Cl)c2)CC1 (centres unmarked)                 Ki             25.1

---

target-of-assay: NK3-receptor (Cavia porcellus)
Construct: from tissue; host or cells: whole animal (Dunkin Hartley guinea pigs), in vivo
Sequence (P30098 whole entry): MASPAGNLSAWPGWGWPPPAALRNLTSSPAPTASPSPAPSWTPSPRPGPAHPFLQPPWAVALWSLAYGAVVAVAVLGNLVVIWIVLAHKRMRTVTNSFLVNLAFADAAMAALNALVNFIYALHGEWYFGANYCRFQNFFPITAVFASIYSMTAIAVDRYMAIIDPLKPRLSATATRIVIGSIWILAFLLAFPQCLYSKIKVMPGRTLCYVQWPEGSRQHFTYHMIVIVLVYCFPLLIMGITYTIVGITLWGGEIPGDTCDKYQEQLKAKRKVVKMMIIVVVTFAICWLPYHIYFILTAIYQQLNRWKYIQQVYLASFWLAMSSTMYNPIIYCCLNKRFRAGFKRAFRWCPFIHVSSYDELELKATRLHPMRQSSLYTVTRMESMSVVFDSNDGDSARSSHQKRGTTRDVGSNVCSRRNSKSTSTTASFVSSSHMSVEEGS
run-description: NK-3-receptor-antagonistic effectiveness in vivo, senktide-induced hypertension in guinea pigs
stated-conditions: guinea pig, senktide 0.4 μg/kg i.v., oral administration
The molecules listed here are annotated with their ID50 (po), inhibition of blood pressure.
quantity-measured: ID50 (po), inhibition of blood pressure (mg/kg)

                                smiles_text  unit_abbreviation  comparison_operator  measured_result
0  CN(C)C(=O)C1(N2CCCCC2)CCN(CC[C@H](CN(C)C(=O)c2ccc(F)cc2F)c2ccc(Cl)c(Cl)c2)CC1              mg/kg                    <               10
1  CN(C)C(=O)C1(N2CCCCC2)CCN(CC[C@H](CN(C)C(=O)c2cc(C#N)c3ccccc3c2)c2ccc(Cl)c(Cl)c2)CC1              mg/kg                    =               10
2  CN(C)C(=O)C1(N2CCCCC2)CCN(CC[C@H](CN(C)C(=O)c2ccc(F)cc2)c2ccc(Cl)c(Cl)c2)CC1              mg/kg                    =           2.3313
3  CN(C)C(=O)C1(N2CCCCC2)CCN(CC[C@H](CN(C)C(=O)c2ccc(F)c(F)c2)c2ccc(Cl)c(Cl)c2)CC1              mg/kg                    =            6.811

---

target-of-assay: human NK3 receptor (Homo sapiens)
Sequence (P29371 1-465): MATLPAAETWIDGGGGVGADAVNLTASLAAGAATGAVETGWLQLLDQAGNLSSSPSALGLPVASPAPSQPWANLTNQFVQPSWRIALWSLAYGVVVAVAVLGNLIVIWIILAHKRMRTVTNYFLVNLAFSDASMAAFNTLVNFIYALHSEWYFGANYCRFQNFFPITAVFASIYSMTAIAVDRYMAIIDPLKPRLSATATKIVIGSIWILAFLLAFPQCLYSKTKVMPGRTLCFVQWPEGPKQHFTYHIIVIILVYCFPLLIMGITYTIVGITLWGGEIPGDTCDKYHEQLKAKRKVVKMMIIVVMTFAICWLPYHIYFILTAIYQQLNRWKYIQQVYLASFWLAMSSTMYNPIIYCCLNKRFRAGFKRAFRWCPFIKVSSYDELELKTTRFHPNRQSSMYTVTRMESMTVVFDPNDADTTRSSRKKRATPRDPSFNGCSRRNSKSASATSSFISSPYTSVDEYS
run-description: Binding potency of the test substances to NK3-receptors in vitro ([3H]-SR 142801 displacement)
Parameters: expressed in transfected cells; host or cells: CHO cells (membrane preparation)
stated-conditions: human NK3-receptor in CHO cell membranes, [3H]-SR 142801 (osanetant); average of at least three measurements; read-out: pKi, binding potency to NK3-receptors (converted)
quantity-measured: Ki (nM)

In [3]: df
Out[3]:
                                   molecule  unit_abbreviation  measured_result
0  CN(C)C(=O)C1(N2CCCCC2)CCN(CCC(CN(C)C(=O)c2ccc(S(N)(=O)=O)cc2)c2ccc(Cl)c(Cl)c2)CC1 (stereo not shown)                 nM             31.6
1  CN(C[C@@H](CCN1CCC(C(=O)N2CCCC2)(N2CCCCC2)CC1)c1ccc(Cl)c(Cl)c1)C(=O)c1ccccc1                 nM             15.8
2  CC(=O)Oc1ccc(C(=O)N(C)C[C@@H](CCN2CCC(C(=O)N(C)C)(N3CCCCC3)CC2)c2ccc(Cl)c(Cl)c2)cc1                 nM             5.01
3  CN(C)C(=O)C1(N2CCCCC2)CCN(CCC(CN(C)C(=O)c2c(F)cccc2F)c2ccc(Cl)c(Cl)c2)CC1 (stereo not shown)                 nM             25.1

---

target-of-assay: human NK3 receptor (Homo sapiens, UniProt P29371)
run-description: Binding potency of the test substances to NK3-receptors in vitro ([3H]-SR 142801 displacement)
Set-up: expressed in transfected cells; host or cells: CHO cells (membrane preparation)
stated-conditions: human NK3-receptor in CHO cell membranes, [3H]-SR 142801 (osanetant); average of at least three measurements; read-out: pKi, binding potency to NK3-receptors (converted)
The molecules listed here are annotated with their Ki.
quantity-measured: Ki (nM)

>>> print(df.to_string())
                                   molecule  unit_abbreviation  measured_result
0  CN(C)C(=O)C1(N2CCCCC2)CCN(CCC(CN(C)C(=O)c2ccc3ccccc3c2)c2ccc(Cl)c(Cl)c2)CC1 (stereo not shown)                 nM             39.8
1  Cc1ccccc1C(=O)N(C)CC(CCN1CCC(C(=O)N(C)C)(N2CCCCC2)CC1)c1ccc(Cl)c(Cl)c1 (stereo not shown)                 nM             25.1
2  CN(C)C(=O)C1(N2CCCCC2)CCN(CCC(CN(C)C(=O)c2ccc(OC(F)(F)F)cc2)c2ccc(Cl)c(Cl)c2)CC1 (stereo not shown) [compound 55]                 nM             3.98
3  CN(C)C(=O)C1(N2CCCCC2)CCN(CCC(CN(C)C(=O)C2CC2)c2ccc(Cl)c(Cl)c2)CC1 (stereo not shown)                 nM             50.1
4  CN(C)C(=O)C1(N2CCCCC2)CCN(CCC(CN(C)C(=O)Cc2ccccc2)c2ccc(Cl)c(Cl)c2)CC1 (stereo not shown)                 nM             15.8
5  CN(C)C(=O)C1(N2CCCCC2)CCN(CCC(CN(C)C(=O)c2ccc(Cl)c(Cl)c2)c2ccc(Cl)c(Cl)c2)CC1 (stereo not shown)                 nM             79.4
6  CN(C)C(=O)C1(N2CCCCC2)CCN(CCC(CN(C)C(=O)Cc2cc(O)nc(O)n2)c2ccc(Cl)c(Cl)c2)CC1 (stereo not shown)                 nM             63.1
